FYI, the data here is from ChEMBL document CHEMBL4251549.

- Tested on: K562
- Protocol Details: Antiproliferative activity in human K562 cells after 48 hrs by MTT assay
- Assay type: functional, cell-based
- Cond: K562, 48 h
Measured Parameter: IC50

IC50 reported for this compound `CN(C)c1cc2cc(c1O)Oc1ccc(cc1)CCc1cccc(O)c1-c1ccc(cc1O)CC2` : > 20 µM

IC50 reported for this compound `COCCN(CCOC)Cc1ccc2c(c1O)-c1ccc(cc1O)CCc1ccc(O)c(c1)Oc1ccc(cc1)CC2` : > 20 µM

IC50 reported for this compound `CC(=O)Nc1cc2cc(c1O)Oc1ccc(cc1)CCc1cccc(O)c1-c1ccc(cc1O)CC2` : > 20 µM
